System: inactivated Group A β-hemolytic streptococcus
testSummary: Visual evaluation of red line on detection part of immunochromatographic device; also: key: '++' (strong positive) when the red line could be visually observed clearly; '+' (positive) when the red line on the detection part (4) could be visually observed; '±' (weak positive) when a light red line could be visually observed; '−' (negative) when the red line could not be visually observed
conditionDescription: positive analyte sample 5×10^5 org/mL, 150 μL, member order of FIG. 3, acid content per pad as in Table 1
readoutName: Result of Visual Evaluation (After 5 Minutes)

1. CC#Cc1ccc2c(c1)C(=O)OC2=O [Example 3, 4-(1-propynyl)phthalic anhydride]    +
2. O=C1CC(C2CC3C(=O)OC(=O)C3c3ccccc32)C(=O)O1 (stereo not drawn) [Example 6]    ++
3. CC(=O)Nc1cccc2c1C(=O)OC2=O [Example 4, 3-acetamidophthalic anhydride]    +
4. O=C1CCC(=O)O1 [compound 2, succinic anhydride]    ++
5. CCCCCCCC/C=C\CCCCCCCC(=O)O [compound 6, oleic acid]    −
6. N[C@@H](CCC(=O)O)C(=O)O [compound 7, glutamic acid]    −
7. O=C1OC(=O)C2C3C=CC(C12)C1C(=O)OC(=O)C31 (stereo not drawn) [Example 1]    ++
8. O=C1OC(=O)[C@@H]2CC=CC[C@H]12 [Comparative Example 9]    +
9. O=C1CC(c2ccccc2)C(=O)O1 (stereo not drawn) [compound 8, phenylsussinic acid anhydride]    +
10. O=c1oc(=O)c2cc3c(=O)oc(=O)c3cc12 [Example 2, pyromellitic anhydride]    ++
11. O=C(O)CC(O)C(=O)O (stereo not drawn) [compound 3, malic acid]    −
12. O=C1OC(=O)C2CC3C(=O)OC(=O)C3CC12 (stereo not drawn) [Example 5]    ++
13. O=C(ON1C(=O)CCC1=O)c1ccccc1 [Comparative Example 1, N-(benzoyloxy)succinimide]    −
14. C=C(CC(=O)O)C(=O)O [compound 4, itaconic acid]    −
15. O=C(O)CN(CCO)CCO [compound 5, N,N-bis(2-hydroxyethyl)glycine]    −
